Test: Leishmania major promastigote growth inhibition, primary screen (AID 1063);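 note: promastigotes grown with compound for 44 hours at 28 °C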
Conditions: Leishmania major promastigotes, resazurin fluorescence viability; at 10 µM; active compounds read high
The whole screen tested about 200,000 compounds, of which about 18,000 (9%) were called active. What follows is part of a selection rich in actives, with near analogues and random picks from the rest.
measured.endpoint: inhibition (%)
Numbers only, in %.

Consider the reported inhibition for these molecules:
smiles.repr	inhibition / %
CCCCC(=O)Nc1nc(C)c(-c2csc(Nc3ccc(Cl)cc3)n2)s1	27
CCn1c(CSc2nc(C)cc(C)n2)nnc1SCC(N)=O	-0.87
Cc1ccc(Nc2nc(-c3sc(NC(=O)c4ccccc4)nc3C)cs2)cc1	15.7
CCC(=O)NCCc1nc2ccccc2n1CC	-0.68
CCCCCCC(=O)Nc1nc(C)c(-c2csc(Nc3cc(Cl)ccc3OC)n2)s1	56.5

List the reported inhibition of each molecule below.
1. Cc1ccc(Cn2c(NC(=O)c3ccco3)nc3ccccc32)cc1
2. CC(=O)Nc1nc2ccccc2n1Cc1ccc(C)cc1
3. C=CCCC(=O)Nc1nc(C)c(-c2csc(Nc3ccc(Cl)cc3)n2)s1
4. O=C(CO/N=C/c1ccccc1OC(F)F)NC1CCCC1

Output:
9.07
88.6
40.7
9.48
